assayed.system: mouse TMEM16A mutant N546A (Mus musculus, UniProt Q8BHY3, N546A)
Construct: expressed in transfected cells; host or cells: HEK293T
Sequence (Q8BHY3 1-960 N546A): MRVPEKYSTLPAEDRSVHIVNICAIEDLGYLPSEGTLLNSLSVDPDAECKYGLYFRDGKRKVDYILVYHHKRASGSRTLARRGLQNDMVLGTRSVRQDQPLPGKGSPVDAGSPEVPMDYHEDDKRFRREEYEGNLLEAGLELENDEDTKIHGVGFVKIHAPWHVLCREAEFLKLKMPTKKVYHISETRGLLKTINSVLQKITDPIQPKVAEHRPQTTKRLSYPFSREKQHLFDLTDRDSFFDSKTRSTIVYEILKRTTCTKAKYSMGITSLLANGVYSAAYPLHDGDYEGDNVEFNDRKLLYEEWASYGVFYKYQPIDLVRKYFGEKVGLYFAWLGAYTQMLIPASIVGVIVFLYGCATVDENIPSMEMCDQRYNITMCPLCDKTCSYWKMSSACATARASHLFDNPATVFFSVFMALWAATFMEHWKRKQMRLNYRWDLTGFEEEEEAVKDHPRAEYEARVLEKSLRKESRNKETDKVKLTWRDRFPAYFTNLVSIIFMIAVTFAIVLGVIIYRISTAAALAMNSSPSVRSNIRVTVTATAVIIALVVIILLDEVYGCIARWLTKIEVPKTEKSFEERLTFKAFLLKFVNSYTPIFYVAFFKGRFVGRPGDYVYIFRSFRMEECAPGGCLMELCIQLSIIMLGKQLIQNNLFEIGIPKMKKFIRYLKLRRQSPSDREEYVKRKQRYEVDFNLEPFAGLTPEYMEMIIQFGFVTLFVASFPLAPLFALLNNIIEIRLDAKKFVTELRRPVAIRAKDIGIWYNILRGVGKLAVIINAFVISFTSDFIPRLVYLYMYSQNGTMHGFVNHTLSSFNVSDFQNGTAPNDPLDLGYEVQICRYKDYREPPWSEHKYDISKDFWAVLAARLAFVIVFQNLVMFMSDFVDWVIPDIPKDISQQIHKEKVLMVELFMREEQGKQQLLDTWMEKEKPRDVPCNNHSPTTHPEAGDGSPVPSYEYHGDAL
measurement.description: Inside-out patch recording of 1PBC block, mutant N546A
Assay type: cell-based
condition.details: 80 mV; 2 µM Ca2+
reported.metric: IC50

INSERT INTO results (compound, assayed_system, observed_measurement) VALUES
  ('N#Cc1c(C(F)(F)F)cc(O)n2c1nc1ccccc12 [1PBC]', 'mouse TMEM16A mutant N546A (Mus musculus, UniProt Q8BHY3, N546A)', '239 nM');
